Target: T1, PMA-treated THP-1 cells (endogenously expressed human MSR1) (Homo sapiens, UniProt P21757)
T1 construct: endogenous in cells; host or cells: THP-1 cells differentiated with PMA
T1 sequence (P21757 1-451): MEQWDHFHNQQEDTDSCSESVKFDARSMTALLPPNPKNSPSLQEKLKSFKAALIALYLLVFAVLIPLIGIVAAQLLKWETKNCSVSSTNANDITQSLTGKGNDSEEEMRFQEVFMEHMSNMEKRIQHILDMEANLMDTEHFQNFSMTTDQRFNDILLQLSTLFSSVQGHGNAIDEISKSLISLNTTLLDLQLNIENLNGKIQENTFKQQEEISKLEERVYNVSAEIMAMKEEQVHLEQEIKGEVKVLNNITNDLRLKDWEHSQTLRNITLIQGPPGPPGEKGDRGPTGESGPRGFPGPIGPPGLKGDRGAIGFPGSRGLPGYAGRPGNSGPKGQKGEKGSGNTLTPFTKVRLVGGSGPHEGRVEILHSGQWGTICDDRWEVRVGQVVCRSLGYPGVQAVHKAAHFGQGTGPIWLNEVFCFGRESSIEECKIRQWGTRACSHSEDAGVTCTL
Experiment: Electrochemiluminescence antibody binding assay on MSR1-expressing cells
Type: cell-based
Item-by-item account of Ratio of 11 nM Antibody Binding Signal (RLU) to isotype control, PMA-treated THP-1

Known results for molecules:
• H2aM21229N: one of "Twelve anti-MSR1 antibodies"; "an “H2aM” antibody has a mouse IgG2a Fc" (antibody, V domains shown) VH: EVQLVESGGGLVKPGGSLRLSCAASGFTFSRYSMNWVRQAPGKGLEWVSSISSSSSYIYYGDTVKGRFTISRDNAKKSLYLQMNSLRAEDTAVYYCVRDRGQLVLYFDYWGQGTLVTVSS VL: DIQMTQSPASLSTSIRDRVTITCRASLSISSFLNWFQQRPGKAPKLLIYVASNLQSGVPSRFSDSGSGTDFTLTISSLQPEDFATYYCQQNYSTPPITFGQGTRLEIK = 56
• H1H21227N-N297D: "The 21227N antibody was also produced as a third version with a N297D mutation" (antibody, V domains shown) VH: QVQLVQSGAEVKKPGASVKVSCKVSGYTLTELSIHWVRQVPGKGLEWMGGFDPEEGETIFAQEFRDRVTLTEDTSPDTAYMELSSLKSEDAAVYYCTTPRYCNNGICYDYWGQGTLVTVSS VL: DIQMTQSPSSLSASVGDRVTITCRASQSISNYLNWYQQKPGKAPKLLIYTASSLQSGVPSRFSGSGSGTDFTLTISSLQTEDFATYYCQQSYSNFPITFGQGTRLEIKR = 6

Alright, here's another molecule for you.
Challenge: Which Ratio of 11 nM Antibody Binding Signal (RLU) to isotype control, PMA-treated THP-1 is listed for H1H21227N-N297Q: "modified versions of 21227N (H1H21227N-N297Q and H1H21227N-N297D)"; anti-MSR1 antibody "with a N297Q single point mutation" (antibody, V domains shown) VH: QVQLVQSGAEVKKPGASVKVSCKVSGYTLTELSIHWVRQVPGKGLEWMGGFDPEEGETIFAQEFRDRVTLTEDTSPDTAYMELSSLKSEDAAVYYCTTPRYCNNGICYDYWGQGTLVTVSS VL: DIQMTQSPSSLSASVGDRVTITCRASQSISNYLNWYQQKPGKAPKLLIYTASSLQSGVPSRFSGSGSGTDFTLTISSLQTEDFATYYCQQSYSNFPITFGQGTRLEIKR ?
Response given: 5

meta.source: patent US12497460B2
